Source: paper PMC5505960

target: STK1 (STKK1, soluble kinase domain) (Staphylococcus aureus); construct: gene SA1063; His-tag-STKK1, kinase domain with part of the adjacent juxta-membrane domain (1-280 aa); assay: inhibition of autophosphorylation of purified STKK1 (gamma-32P-ATP); also elution of STK1 from ATP column; type: biochemical
test readout: IC50 (µM)
Just the number in µM, nothing appended.

Data request: Could you share which IC50 value was measured for Cc1ccc(NC(=O)c2sc(=S)n3c2[nH]c(=O)c2ccccc23)c(C)c1 [Inh2] ?
Data returned: 24.5

---

target: STK1 (STKK1, soluble kinase domain) (Staphylococcus aureus, UniProt A0ABF7PGK0); construct: gene SA1063; His-tag-STKK1, kinase domain with part of the adjacent juxta-membrane domain (1-280 aa); experiment: inhibition of autophosphorylation of purified STKK1 (gamma-32P-ATP); also elution of purified STKK1 from ATP column; assay type: biochemical
Sequence (A0ABF7PGK0 entry or part of it): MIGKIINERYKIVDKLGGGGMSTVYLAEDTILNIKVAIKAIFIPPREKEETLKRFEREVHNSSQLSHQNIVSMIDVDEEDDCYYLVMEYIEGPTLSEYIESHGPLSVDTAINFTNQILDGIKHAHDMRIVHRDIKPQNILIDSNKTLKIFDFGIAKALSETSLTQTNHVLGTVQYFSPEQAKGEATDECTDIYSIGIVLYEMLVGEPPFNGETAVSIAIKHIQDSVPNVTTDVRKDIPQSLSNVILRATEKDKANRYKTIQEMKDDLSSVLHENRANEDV
test readout: IC50
Put your answer as a value accompanied by its unit after it.

Data request: Could you share which IC50 value was measured for COC(=O)c1ccc2c(=O)[nH]c3c(C(=O)Nc4ccccc4)sc(=S)n3c2c1 [Inh2-B1] ?
Data returned: 49 µM
